Listing of recorded pEC50 by entry.
- Tested on: SARS-CoV-2 Delta
- Experiment summary: CPE-based cell viability assay (MTT)
- Condition: Severe acute respiratory syndrome coronavirus 2, Vero/TMPRSS2, Vero-TMPRSS2 with CP-100356; read-out: EC50 against SARS-CoV-2 Delta
pEC50: −log10 of the molar value.
Result type: pEC50

>>> recorded_value("O=c1nc(NO)ccn1[C@@H]1O[C@H](CO)[C@@H](O)[C@H]1O [NHC, N-hydroxycytidine]")
6.17
>>> recorded_value("CC(C)(C)[C@H](NC(=O)C(F)(F)F)C(=O)N1C[C@H]2[C@@H]([C@H]1C(=O)N[C@H](C#N)C[C@@H]1CCNC1=O)C2(C)C")
6.88
>>> recorded_value("CCC(CC)COC(=O)[C@H](C)N[P@](=O)(OC[C@H]1O[C@@](C#N)(c2ccc3c(N)ncnn23)[C@H](O)[C@@H]1O)Oc1ccccc1")
7.49
>>> recorded_value("Cn1cnc(Cn2c(=O)[nH]/c(=N\\c3cc4cn(C)nc4cc3Cl)n(Cc3cc(F)c(F)cc3F)c2=O)n1")
7.16
>>> recorded_value("CC(C)C(=O)OC[C@H]1O[C@@H](n2ccc(NO)nc2=O)[C@H](O)[C@@H]1O [Molnupiravir, reference compound]")
5.64

###

- System: SARS-CoV-2 Delta
- Experiment summary: CPE-based cell viability assay (MTT)
- Condition: Severe acute respiratory syndrome coronavirus 2, Vero/TMPRSS2, Vero-TMPRSS2; read-out: EC50 against SARS-CoV-2 Delta
Result type: EC50 (nM)

>>> recorded_value("CC(C)C(=O)OC[C@H]1O[C@@H](n2ccc(NO)nc2=O)[C@H](O)[C@@H]1O [Molnupiravir, reference compound]")
3170
>>> recorded_value("O=c1nc(NO)ccn1[C@@H]1O[C@H](CO)[C@@H](O)[C@H]1O [NHC, N-hydroxycytidine]")
360
>>> recorded_value("Cn1cnc(Cn2c(=O)[nH]/c(=N\\c3cc4cn(C)nc4cc3Cl)n(Cc3cc(F)c(F)cc3F)c2=O)n1")
407

###

- Experiment summary: Pharmacokinetics after single oral administration
- Condition: male, Syrian, hamster, plasma, po, 100 mg/kg
Result type: half-life

>>> recorded_value("Cn1cnc(Cn2c(=O)[nH]/c(=N\\c3cc4cn(C)nc4cc3Cl)n(Cc3cc(F)c(F)cc3F)c2=O)n1 [S-217622]")
"206 to 268 min"
